Assay: Stability test in aqueous system (Brilliant Blue color dissipation)
Type: physicochemical
Parameters: key: ++++: no color dissipation; +++: slightly dissipation; ++: obvious dissipation; +: totally dissipated
Settings: water, 2.76% carbamide peroxide, 0.002% Brilliant Blue; compound amount 0.1%; 60 days, room temperature
ATTRIBUTE MEASURED: Color (color fading grade)

Guide cases for Color (color fading grade), answers given:
• O=C([O-])CN(CCN(CC(=O)[O-])CC(=O)O)CC(=O)O.[Na+].[Na+] [Disodium EDTA] = +++
• N=C(NCCCCCCNC(=N)NC(=N)Nc1ccc(Cl)cc1)NC(=N)Nc1ccc(Cl)cc1 [Chlorhexydine, reference compound] = +
• [F-].[Na+] [Sodium fluoride] = ++
• CCCCCCCCCC[N+](C)(C)CCCCCCCCCC.O=C1CC[C@@H](C(=O)[O-])N1 [PODA] = +
• CCCCCCCCCCCCCCCC[n+]1ccccc1.[Cl-] [Hexadecylpyridinium Chloride, Hexadecylpyridinium chloride, reference compound] = +

The record that follows has no Color (color fading grade) shown yet.
Query CC1CCC(C(C)C)C(O)C1 (stereo not drawn) [Menthol] yields Color (color fading grade) of +++

* * *

Assay: Stability test in propylene glycol (Brilliant Blue color dissipation)
Type: physicochemical
Design: key: ++++: no color dissipation; +++: slightly dissipation; ++: obvious dissipation; +: totally dissipated
Settings: propylene glycol, 2.76% carbamide peroxide, 0.002% Brilliant Blue; compound amount 0.1%; 60 days, room temperature
ATTRIBUTE MEASURED: Color (color fading grade)

Guide cases for Color (color fading grade), answers given:
- CCCCCCCCCC[N+](C)(C)CCCCCCCCCC.O=C1CC[C@@H](C(=O)[O-])N1: ++
- [F-].[Na+] [Sodium fluoride]: +++
- CCCCCCCCCCCCCCCC[n+]1ccccc1.[Cl-] [Hexadecylpyridinium Chloride, Hexadecylpyridinium chloride, reference compound]: ++
- N=C(NCCCCCCNC(=N)NC(=N)Nc1ccc(Cl)cc1)NC(=N)Nc1ccc(Cl)cc1 [Chlorhexydine, reference compound]: ++
- O=C([O-])CN(CCN(CC(=O)[O-])CC(=O)O)CC(=O)O.[Na+].[Na+] [Disodium EDTA]: +++

Query CC1CCC(C(C)C)C(O)C1 (stereo not drawn) yields Color (color fading grade) of +++

* * *

Assay: System stability evaluation: compatibility of ingredients with peroxide source and the system
ATTRIBUTE MEASURED: Compatibility with the system (cationic biocide and peroxide source)

Guide cases for Compatibility with the system (cationic biocide and peroxide source), answers given:
• O=C([O-])[O-].[Ca+2] [Precipitate calcium carbonate] = not compatible
• CC1CCC(C(C)C)C(O)C1 (stereo not shown) = compatible
• O=P(O)(O)OP(=O)(O)OP(=O)(O)O [Sodium tripolyphosphate] = not compatible
• OC[C@H]1O[C@H](O[C@]2(CCl)O[C@H](CCl)[C@@H](O)[C@@H]2O)[C@H](O)[C@@H](O)[C@H]1Cl = compatible
• O=P([O-])([O-])OP(=O)([O-])[O-].[Na+].[Na+].[Na+].[Na+] [Tetrasodium pyrophosphate] = not compatible

The record that follows has no Compatibility with the system (cationic biocide and peroxide source) shown yet.
Query O=C1NS(=O)(=O)c2ccccc21.[Na] [Sodium saccharin] yields Compatibility with the system (cationic biocide and peroxide source) of compatible
